assay: In vitro stability in 50% brain homogenate; type: in vitro ADME, mouse; conditions: 50% w/v mouse brain homogenate in PBS pH 7.4; 37°C; HPLC-UV 220 nm; one phase decay, least square fit; n = 3
Residues, ends and D or L forms follow the SMILES beside them.
Metric name: t1/2 (min)
The response must be a number in min with no trailing unit.

QUERY: Given the entry CCCCCCCCCCCC(=O)N[C@@H](CCC(N)=O)C(=O)N[C@@H](Cc1c[nH]cn1)C(=O)N[C@@H](CO)C(=O)N[C@@H](CCC(N)=O)C(=O)N[C@H](C(=O)N[C@H](C(=O)N[C@@H](CCCCN)C(=O)N[C@H](C(=O)O)C(C)C)[C@@H](C)O)[C@@H](C)CC [Mouse Lau-PTEN-PDZ] (HELM PEPTIDE1{[CCCCCCCCCCCC(=O)[*:2]].Q.H.S.Q.I.T.K.V}$$$$V2.0) , report its measured t1/2 (min).
RESULT: 11.95

QUERY: What measured t1/2 (min) goes with CCCCCCCCCCCCCC(=O)N[C@@H](CCC(N)=O)C(=O)N[C@@H](Cc1c[nH]cn1)C(=O)N[C@H](C(=O)N[C@@H](CCC(N)=O)C(=O)N[C@H](C(=O)N[C@H](C(=O)N[C@@H](CCCCN)C(=O)N[C@H](C(=O)O)C(C)C)[C@@H](C)O)[C@@H](C)CC)[C@@H](C)O [Human Myr-PTEN-PDZ] (HELM PEPTIDE1{[CCCCCCCCCCCCCC(=O)[*:2]].Q.H.T.Q.I.T.K.V}$$$$V2.0) ?
RESULT: 9.89

QUERY: Which value of t1/2 (min) has been reported for CCCCCCCCCCCC(=O)N[C@@H](CCC(N)=O)C(=O)N[C@@H](Cc1c[nH]cn1)C(=O)N[C@H](C(=O)N[C@@H](CCC(N)=O)C(=O)N[C@H](C(=O)N[C@H](C(=O)N[C@@H](CCCCN)C(=O)N[C@H](C(=O)O)C(C)C)[C@@H](C)O)[C@@H](C)CC)[C@@H](C)O [Human Lau-PTEN-PDZ] (HELM PEPTIDE1{[CCCCCCCCCCCC(=O)[*:2]].Q.H.T.Q.I.T.K.V}$$$$V2.0) in the records?
RESULT: 21.87

QUERY: What measured t1/2 (min) goes with CCCCCCCCCCCCCC(=O)N[C@@H](CCC(N)=O)C(=O)N[C@@H](Cc1c[nH]cn1)C(=O)N[C@@H](CO)C(=O)N[C@@H](CCC(N)=O)C(=O)N[C@H](C(=O)N[C@H](C(=O)N[C@@H](CCCCN)C(=O)N[C@H](C(=O)O)C(C)C)[C@@H](C)O)[C@@H](C)CC [Mouse Myr-PTEN-PDZ] (HELM PEPTIDE1{[CCCCCCCCCCCCCC(=O)[*:2]].Q.H.S.Q.I.T.K.V}$$$$V2.0) ?
RESULT: 15.32
